biological target: UniProt Q64U80
measure: pIC50
Please note pIC50 is a logarithmic value: minus log10 of concentration in mol/L. Answer with that number alone.

Read the entry COc1ccc2cc3[n+](cc2c1OC)CCc1cc2c(cc1-3)OCO2 and write its reported pIC50.
3.98

###

molecular target: UniProt E7GR72
measure: IC50
Hi, when you answer, please include the unit after the number. Thanks!

Please look at COc1ccc2cc3[n+](cc2c1OC)CCc1cc2c(cc1-3)OCO2 and tell me its recorded IC50 on UniProt E7GR72.
129 µM

###

molecular target: UniProt Q88W76
Sequence (Q88W76 whole entry): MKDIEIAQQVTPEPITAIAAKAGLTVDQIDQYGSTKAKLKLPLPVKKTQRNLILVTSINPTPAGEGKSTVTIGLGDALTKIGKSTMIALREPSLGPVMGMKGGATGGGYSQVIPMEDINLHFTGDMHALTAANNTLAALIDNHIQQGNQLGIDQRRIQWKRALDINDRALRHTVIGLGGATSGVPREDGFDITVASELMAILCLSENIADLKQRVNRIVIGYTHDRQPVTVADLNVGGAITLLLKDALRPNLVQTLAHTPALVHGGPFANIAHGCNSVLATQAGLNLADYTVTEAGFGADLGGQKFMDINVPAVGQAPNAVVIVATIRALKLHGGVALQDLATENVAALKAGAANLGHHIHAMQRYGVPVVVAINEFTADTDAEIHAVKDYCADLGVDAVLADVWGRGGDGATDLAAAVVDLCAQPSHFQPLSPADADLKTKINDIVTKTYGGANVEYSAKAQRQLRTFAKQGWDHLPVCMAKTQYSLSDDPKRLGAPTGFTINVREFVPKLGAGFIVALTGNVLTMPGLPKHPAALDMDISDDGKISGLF
measure: IC50

Read the entry COc1ccc2cc3[n+](cc2c1OC)CCc1cc2c(cc1-3)OCO2 and write its reported IC50.
> 200 µM

###

target: hsMTHFD1 (Homo sapiens, UniProt P11586); construct: His6 tag with thrombin site of pET28a (inferred) (N); details: BLI, 1:1 binding model
Sequence (P11586 whole entry): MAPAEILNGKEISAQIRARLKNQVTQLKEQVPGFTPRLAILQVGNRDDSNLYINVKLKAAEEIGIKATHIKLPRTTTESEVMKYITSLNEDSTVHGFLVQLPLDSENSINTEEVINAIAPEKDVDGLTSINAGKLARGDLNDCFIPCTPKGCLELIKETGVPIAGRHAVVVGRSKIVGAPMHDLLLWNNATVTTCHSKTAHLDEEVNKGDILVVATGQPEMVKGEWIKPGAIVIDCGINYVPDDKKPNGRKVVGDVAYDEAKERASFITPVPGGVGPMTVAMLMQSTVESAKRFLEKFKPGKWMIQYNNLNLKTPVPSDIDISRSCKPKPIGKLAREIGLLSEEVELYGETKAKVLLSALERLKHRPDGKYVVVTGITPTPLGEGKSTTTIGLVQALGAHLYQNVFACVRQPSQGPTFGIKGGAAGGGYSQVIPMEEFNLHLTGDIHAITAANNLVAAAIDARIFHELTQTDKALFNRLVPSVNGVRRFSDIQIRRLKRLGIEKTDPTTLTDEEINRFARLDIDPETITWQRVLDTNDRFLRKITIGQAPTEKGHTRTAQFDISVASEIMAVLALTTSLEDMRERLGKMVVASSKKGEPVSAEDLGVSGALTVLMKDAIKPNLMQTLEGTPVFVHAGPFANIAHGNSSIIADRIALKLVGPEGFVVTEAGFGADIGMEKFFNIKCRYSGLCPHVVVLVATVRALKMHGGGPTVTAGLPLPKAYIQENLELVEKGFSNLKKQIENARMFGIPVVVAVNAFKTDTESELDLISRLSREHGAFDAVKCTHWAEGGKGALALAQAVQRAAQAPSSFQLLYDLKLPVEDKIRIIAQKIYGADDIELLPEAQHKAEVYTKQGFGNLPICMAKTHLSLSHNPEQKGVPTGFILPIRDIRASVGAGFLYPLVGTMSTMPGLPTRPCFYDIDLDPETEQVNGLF
measure: Kd
Hi, when you answer, please include the unit after the number. Thanks!

Please look at COc1ccc2cc3[n+](cc2c1OC)CCc1cc2c(cc1-3)OCO2 and tell me its recorded Kd on hsMTHFD1 (Homo sapiens, UniProt P11586).
2300 nM

###

molecular target: FtfL from Parabacteroides distasonis (Parabacteroides distasonis, UniProt A6LAR6)
measure: IC50

Please look at COc1ccc2cc3[n+](cc2c1OC)CCc1cc2c(cc1-3)OCO2 and tell me its recorded IC50 on FtfL from Parabacteroides distasonis (Parabacteroides distasonis, UniProt A6LAR6).
> 200 µM

###

Target: UniProtKB A0A379CIH2
Sequence (A0A379CIH2 1-558): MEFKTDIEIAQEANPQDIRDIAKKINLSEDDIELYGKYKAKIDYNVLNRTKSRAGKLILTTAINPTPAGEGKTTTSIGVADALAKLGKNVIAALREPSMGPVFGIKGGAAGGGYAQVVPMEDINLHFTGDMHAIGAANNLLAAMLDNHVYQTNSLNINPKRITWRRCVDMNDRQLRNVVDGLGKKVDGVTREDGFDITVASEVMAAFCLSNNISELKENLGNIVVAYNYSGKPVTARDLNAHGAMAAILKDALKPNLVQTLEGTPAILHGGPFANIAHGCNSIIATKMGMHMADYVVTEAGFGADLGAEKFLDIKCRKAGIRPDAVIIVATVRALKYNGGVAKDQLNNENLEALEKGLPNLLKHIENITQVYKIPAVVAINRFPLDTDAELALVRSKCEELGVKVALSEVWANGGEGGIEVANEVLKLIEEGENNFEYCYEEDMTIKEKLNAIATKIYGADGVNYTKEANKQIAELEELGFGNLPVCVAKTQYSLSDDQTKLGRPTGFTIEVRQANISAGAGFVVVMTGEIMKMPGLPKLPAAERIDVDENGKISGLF
measure: Kd (nM)
API: value field is a number in nM; no unit string.

Please look at COc1ccc2cc3[n+](cc2c1OC)CCc1cc2c(cc1-3)OCO2 and tell me its recorded Kd on UniProtKB A0A379CIH2.
674

###

molecular target: hsMTHFD1L (Homo sapiens)
Sequence (Q6UB35 349-978 limits assumed): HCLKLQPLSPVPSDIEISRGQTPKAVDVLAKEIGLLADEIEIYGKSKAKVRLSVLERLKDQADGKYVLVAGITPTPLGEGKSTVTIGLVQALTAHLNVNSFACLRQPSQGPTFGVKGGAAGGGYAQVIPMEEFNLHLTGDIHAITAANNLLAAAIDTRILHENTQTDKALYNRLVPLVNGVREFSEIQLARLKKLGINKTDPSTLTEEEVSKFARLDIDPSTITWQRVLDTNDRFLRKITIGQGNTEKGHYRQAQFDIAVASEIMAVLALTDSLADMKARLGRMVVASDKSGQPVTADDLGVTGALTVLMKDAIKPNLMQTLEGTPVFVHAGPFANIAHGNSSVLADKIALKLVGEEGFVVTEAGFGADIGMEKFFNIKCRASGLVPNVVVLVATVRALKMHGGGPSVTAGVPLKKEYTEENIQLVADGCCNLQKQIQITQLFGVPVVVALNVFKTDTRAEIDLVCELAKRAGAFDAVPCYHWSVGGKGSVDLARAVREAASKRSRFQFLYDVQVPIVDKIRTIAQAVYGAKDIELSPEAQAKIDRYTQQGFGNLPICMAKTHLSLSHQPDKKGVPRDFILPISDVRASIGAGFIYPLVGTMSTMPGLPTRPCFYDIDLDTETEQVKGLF
measure: pKd
Please note pKd is a logarithmic value: minus log10 of concentration in mol/L. Answer with that number alone.

Please look at COc1ccc2cc3[n+](cc2c1OC)CCc1cc2c(cc1-3)OCO2 [BBR, Berberine] and tell me its recorded pKd on hsMTHFD1L (Homo sapiens).
6.80

###

biological target: FtfL from Fusobacterium nucleatum (Fusobacterium nucleatum); experiment: Inhibition of FtfL enzymatic activity; format: biochemical
measure: IC50 (µM)
API: value field is a number in µM; no unit string.

Read the entry COc1ccc2cc3[n+](cc2c1OC)CCc1cc2c(cc1-3)OCO2 [BBR, Berberine] and write its reported IC50.
106

###

target: UniProt:Q9CH07
Sequence (Q9CH07 whole entry): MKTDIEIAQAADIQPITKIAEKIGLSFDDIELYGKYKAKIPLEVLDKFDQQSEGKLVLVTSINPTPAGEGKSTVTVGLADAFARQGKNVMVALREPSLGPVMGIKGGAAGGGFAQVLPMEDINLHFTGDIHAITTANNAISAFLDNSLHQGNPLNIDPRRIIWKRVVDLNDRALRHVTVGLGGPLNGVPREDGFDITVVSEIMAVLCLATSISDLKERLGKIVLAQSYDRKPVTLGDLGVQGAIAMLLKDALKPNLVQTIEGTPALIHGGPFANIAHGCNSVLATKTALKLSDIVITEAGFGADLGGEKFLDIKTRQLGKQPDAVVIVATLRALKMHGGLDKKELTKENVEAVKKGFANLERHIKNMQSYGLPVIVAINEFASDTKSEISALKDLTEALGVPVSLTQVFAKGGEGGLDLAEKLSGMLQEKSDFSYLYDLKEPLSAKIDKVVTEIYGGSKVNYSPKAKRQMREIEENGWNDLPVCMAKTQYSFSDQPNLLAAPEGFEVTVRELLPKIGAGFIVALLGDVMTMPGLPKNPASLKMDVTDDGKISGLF
measure: IC50 (µM)
API: value field is a number in µM; no unit string.

Please look at COc1ccc2cc3[n+](cc2c1OC)CCc1cc2c(cc1-3)OCO2 and tell me its recorded IC50 on UniProt:Q9CH07.
118
